Reference source: patent US20030162943A1

# measurementTarget: T1, murine D6 (murine, UniProt O08707 1-378)
# T1 construct: Endogenous on B-end cells in the polyclonal antibody staining; also called murine D6 receptor; mouse D6
# T1 sequence: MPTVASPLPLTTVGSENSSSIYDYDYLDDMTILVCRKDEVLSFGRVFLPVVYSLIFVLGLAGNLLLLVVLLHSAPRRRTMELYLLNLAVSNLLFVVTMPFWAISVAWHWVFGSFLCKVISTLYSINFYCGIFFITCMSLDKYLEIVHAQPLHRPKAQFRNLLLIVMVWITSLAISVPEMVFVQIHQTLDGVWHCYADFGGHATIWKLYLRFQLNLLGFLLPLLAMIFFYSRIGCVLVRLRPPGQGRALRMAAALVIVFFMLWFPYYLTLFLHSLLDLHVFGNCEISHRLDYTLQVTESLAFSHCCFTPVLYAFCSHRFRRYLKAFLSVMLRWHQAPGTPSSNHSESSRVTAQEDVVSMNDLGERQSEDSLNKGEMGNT
# assayExplanation: competition with 125I-murine MIP-1α on CHO cells stably expressing murine D6; LIGAND analysis
# Protocol: Stably transfected CHO cells were plated at 10^5 cells/well in 24-well plates and incubated overnight at 37° C. […] Lysed cells were transferred to a counting vial and bound radioactivity counted for 1 minute in Beckman Gamma 5500B counter. […] Data was analyzed using Scahot and Scafit programs in LIGAND software (Munson et al. (1980) Anal. Biochem. 107:220-239).
pKd: −log10 of the molar value.
metricName: pKd

I: human MIP-1β (ligand, UniProt P13236 24-92, looked up) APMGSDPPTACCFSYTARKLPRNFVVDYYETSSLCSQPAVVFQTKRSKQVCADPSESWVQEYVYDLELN
II: murine MIP-1β (ligand, UniProt P14097 24-92, looked up, also called mMIP-1β; murine M1β) APMGSDPPTSCCFSYTSRQLHRSFVMDYYETSSLCSKPAVVFLTKRGRQICANPSEPWVTEYMSDLELN
III: human RANTES (ligand, UniProt P13501 24-91, looked up, also called hRANTES; HRANTES) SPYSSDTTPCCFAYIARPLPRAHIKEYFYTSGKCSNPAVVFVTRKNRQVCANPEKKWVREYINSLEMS
Rank entries according to their pKd, from the largest number down. // list labels; follow requested order
I, II, III
(I: 9.59, II: 9.11, III: 8.70)
